Source listed as ChEMBL document CHEMBL1157539.

tested on: Plasmodium falciparum; assay: GSK_TCMDC: Inhibition of Plasmodium falciparum 3D7 in whole red blood cells, using parasite LDH activity as an index of growth. Test compounds present at 2uM; assay type: functional

{"Compound": "Cc1ccc(C2CCN(CCCCNC(=O)c3ccc(NC(=O)c4ccc(Cl)cc4)cc3)CC2)c(OCC2CC2)c1.Cl", "Inhibition": "100%"}
{"Compound": "COc1cc(Cc2cnc(N)nc2N)cc(OCCCCc2nnn[nH]2)c1OC", "Inhibition": "97%"}
{"Compound": "CC(NC(=O)c1ccc(O)c(-c2ccc(Cl)c(Cl)c2)c1)C(=O)NCCN1CCCC1 (centres undefined)", "Inhibition": "99%"}
{"Compound": "COc1ccccc1CCNc1ncc(F)c(N[C@@H](Cc2ccccc2)C(=O)NCCc2ccccc2)n1.O=C(O)C(F)(F)F", "Inhibition": "90%"}
{"Compound": "CCCN(Cc1nnc(-c2cccs2)o1)C(=O)C1COc2ccccc2O1 (centres undefined)", "Inhibition": "87%"}
{"Compound": "Cc1ccc(O)c(-c2cc(C(=O)Nc3ccc(S(=O)(=O)N4CCCC(C)C4)cc3)[nH]n2)c1 (centres undefined)", "Inhibition": "96%"}
{"Compound": "COc1cc(C(=O)Nc2cccc(-c3nc4ccccc4[nH]3)c2)ccc1OC(C)=O", "Inhibition": "83%"}
{"Compound": "O=C(Nc1ccc(Oc2ccc(OC(F)(F)F)cc2)cc1)c1ccco1", "Inhibition": "90%"}
{"Compound": "Br.CC1(C)NC(N)=NC(=N)N1OCCSCCON1C(=N)N=C(N)NC1(C)C", "Inhibition": "95%"}
{"Compound": "CCCCN(CCCC)Cc1cc2ccccc2cc1O.Cl", "Inhibition": "100%"}
{"Compound": "O=C(/C=C/c1ccc(Cl)c(Cl)c1)NCCCCCN1CCC(NC(=S)Nc2ccc(Cl)c(Cl)c2)CC1", "Inhibition": "99%"}
{"Compound": "Cc1cc(=O)oc2c1ccc1oc(C(O)c3ccc(Cl)cc3)c(C)c12 (centres undefined)", "Inhibition": "95%"}
{"Compound": "Cl.c1cc2[nH]c(CCCCc3nc4cc(C5=N[C@H]6CCCC[C@H]6N5)ccc4[nH]3)nc2cc1C1=N[C@H]2CCCC[C@H]2N1", "Inhibition": "90%"}
{"Compound": "O=C(O)C(F)(F)F.c1cc(CNCC2CCCO2)cc(-c2cccc(-c3nc4ccccc4[nH]3)c2)c1 (centres undefined)", "Inhibition": "100%"}
{"Compound": "CN(C)CCC1CCN(CCS(=O)(=O)c2cccc(Nc3ncc(-c4cccc(F)c4)cn3)c2)CC1", "Inhibition": "96%"}
{"Compound": "Cc1ccc(CN2CCN(CC(O)COc3ccc4c(c3)CCC4)CC2)cc1 (centres undefined)", "Inhibition": "95%"}
{"Compound": "O=S(=O)(Nc1cccc(CCN2CCCCC2CCN2CCCC2)c1)c1cccc2ccccc12 (centres undefined)", "Inhibition": "97%"}
{"Compound": "Cc1ccc2nc(C)cc(N/N=C/c3ccc([N+](=O)[O-])cc3)c2c1", "Inhibition": "100%"}
{"Compound": "CCOc1cc(C(=O)Nc2ccc(-c3nc4ccccc4[nH]3)cc2)cc(OCC)c1OCC", "Inhibition": "100%"}

====

The entries below come with measured Inhibition values attached.
tested on: Plasmodium falciparum; assay: GSK_TCMDC: Inhibition of Plasmodium falciparum 3D7 in whole red blood cells, using parasite LDH activity as an index of growth. Test compounds present at 2uM; format: functional

{"Compound": "CN(C)CCOc1ccc(N2CCN(CCCCNC(=O)c3ccc(/C=C/c4cc(Cl)cc(Cl)c4)cc3)CC2)cc1", "Value units": "%", "Inhibition": 98}
{"Compound": "Cc1cc(NC2CCN(CC3CCCCC3)C2)nc(Nc2ccc(Br)cc2)n1 (centres undefined)", "Value units": "%", "Inhibition": 100}
{"Compound": "CC1(C)NC(N)=NC(=N)N1OCOc1cc(Cl)c(Cl)cc1Cl.Cl", "Value units": "%", "Inhibition": 96}
{"Compound": "CCCCCN1CCCC1CNS(=O)(=O)c1cccc(C(=O)Nc2cccc(C(F)(F)F)c2)c1.O=C(O)C(F)(F)F (centres undefined)", "Value units": "%", "Inhibition": 96}
{"Compound": "COc1cc(NC(=O)/C=C/c2ccccc2OC(F)(F)F)cc(OCCN2CCCCC2)c1.O=C(O)C(=O)O", "Value units": "%", "Inhibition": 96}
{"Compound": "COc1ccc(CCc2ccc(-c3c(C)[nH]c(C)c(Cl)c3=O)cc2)cc1", "Value units": "%", "Inhibition": 98}
{"Compound": "CC1(C)N=C(N)N=C(Nc2ccc(F)c(F)c2)N1.Cl", "Value units": "%", "Inhibition": 91}
{"Compound": "N=C(N)NC(=O)Nc1ccc(Cl)c(C(F)(F)F)c1", "Value units": "%", "Inhibition": 100}
{"Compound": "CN(C)CCCOc1ccc(CN2CC[C@H](NC(=O)c3ccc(Cl)c(Cl)c3)C2)cc1Br.O=C(O)C(F)(F)F", "Value units": "%", "Inhibition": 100}
{"Compound": "O=C(Nc1cccc(-c2nc3ccccc3[nH]2)c1)c1cccc(NC(=O)c2ccco2)c1", "Value units": "%", "Inhibition": 91}
{"Compound": "CCNc1cc(C(=O)N[C@@H](Cc2ccccc2)[C@H](O)CNC2CCCCC2)cc(N2CCCCS2(=O)=O)c1", "Value units": "%", "Inhibition": 99}
{"Compound": "CCCN1CC[C@@H](CCCc2ccnc3ccc(O)cc23)[C@@H](CC)C1.Cl", "Value units": "%", "Inhibition": 93}
{"Compound": "Cc1ccc(C(=O)Nc2ccc(C)c(OC3CCN(Cc4ccco4)C3)c2)cc1.O=C(O)C(F)(F)F (centres undefined)", "Value units": "%", "Inhibition": 90}
{"Compound": "N#Cc1cccc(C(=O)Nc2cccc(-c3ccc(CN4CCCC4)cc3)c2)c1.O=C(O)C(F)(F)F", "Value units": "%", "Inhibition": 98}
{"Compound": "COc1ccc2ncc(F)c(CCN3CC(O)C(CNCc4ccc5oc(=O)ccc5c4)C3)c2n1.Cl (centres undefined)", "Value units": "%", "Inhibition": 89}
{"Compound": "CCCc1cc(Cc2cnc(N)nc2N)c2cccnc2c1OC", "Value units": "%", "Inhibition": 98}
{"Compound": "CSCCCN1CCC(O)(c2ccc3oc(C(=O)Nc4ccc5sc(C)nc5c4)cc3c2)CC1", "Value units": "%", "Inhibition": 100}
{"Compound": "c1ccc(-c2cc(NCCCn3ccnc3)nc(-c3cccnc3)n2)cc1", "Value units": "%", "Inhibition": 84}
{"Compound": "CNCc1ccc(CN(C)c2nc(N)c3cc(OC)c(OC)cc3n2)cc1.O=C(O)C(F)(F)F", "Value units": "%", "Inhibition": 96}

====

test system: HepG2; assay: GSK_TCMDC: Percent inhibition of human HepG2 cell line. Test compounds present at 10uM.; assay type: functional
Flag rule - Inhibition less than 20% flags Yes; the remaining entries get No.

{"Compound": "CN1CCN=C1c1ccc(NC(=O)Nc2ccc(C3=NCCN3C)cc2)cc1.Cl", "Qualitative label": "Yes"}
{"Compound": "COc1ccc(CNCc2ccc(F)cc2)cc1-c1ccc(S(=O)(=O)NCCN2CCCC2)s1.O=C(O)C(F)(F)F", "Qualitative label": "No"}
{"Compound": "Cc1ccc(-c2nc(NC(=O)Nc3ccc(C(F)(F)F)cc3)sc2C)cc1Cl", "Qualitative label": "No"}
{"Compound": "CN(C)CCOc1ccc(-c2cc(-c3ccc(Cl)c(O)c3)c(-c3ccncc3)o2)cc1.Cl", "Qualitative label": "No"}
{"Compound": "CC(=O)Nc1ncc(C(=O)Nc2cccc(-c3ccc(-c4nc5cccc(C)c5[nH]4)cc3)c2)s1", "Qualitative label": "No"}
{"Compound": "CCN(CCCN1CCCCC1)c1cc(C)nc(Nc2ccc(Cl)cc2)n1.Cl", "Qualitative label": "No"}
{"Compound": "COc1ccc2nc3cc(Cl)ccc3c(NCCN3CCN(C)CC3)c2c1.Cl", "Qualitative label": "No"}
{"Compound": "CCOC(=O)C1=C(C)N=c2sc(=Cc3ccccc3O)c(=O)n2C1c1ccc(OC)c2ccccc12 (stereo not drawn)", "Qualitative label": "Yes"}
{"Compound": "CCCCOc1ccccc1C(=O)NCc1csc(-c2ccccc2)n1", "Qualitative label": "Yes"}
{"Compound": "O=C(NC1CCN(CCCc2ccccc2)CC1)c1ccc(-c2cccc(C(F)(F)F)c2)s1.O=C(O)C(F)(F)F", "Qualitative label": "No"}
{"Compound": "CCC(C)(C)c1ccc(S(=O)(=O)Nc2ccc(Cl)c(OCCN3CCCCC3)c2)cc1", "Qualitative label": "No"}
{"Compound": "O=C(/C=C/c1ccc(C(F)(F)F)cc1)N1CCC(CCN2CCC(c3c[nH]c4ccccc34)CC2)CC1", "Qualitative label": "No"}
{"Compound": "COc1cccc2c(C)cc(NCc3ccc(Cl)cc3)nc12", "Qualitative label": "Yes"}
{"Compound": "Cc1cc(N(C)C)nc(Nc2ccc(NC(=O)c3ccccc3F)cc2)n1", "Qualitative label": "Yes"}
{"Compound": "CCS(=O)(=O)c1ccc(-c2cnc3[nH]cc(-c4ccc(N)cc4)c3c2)cc1", "Qualitative label": "No"}
{"Compound": "CC(CN1CCN(C)CC1)C(=O)Nc1ccc(-c2ccc(-c3nc4ccccc4[nH]3)s2)cc1 (stereo not drawn)", "Qualitative label": "Yes"}
{"Compound": "CC(=O)O.COc1ccc(CNc2ccc3nc(N)nc(N)c3c2)cc1", "Qualitative label": "No"}
{"Compound": "O=C(NCC1CC1)C1CCN(C(c2ccccc2)c2ccc(Cl)c(Cl)c2)CC1 (stereo not drawn)", "Qualitative label": "Yes"}
{"Compound": "Cc1cccc2nc(-c3cccc(-c4ccc(NC(=O)c5c[nH]cn5)cc4)c3)[nH]c12", "Qualitative label": "Yes"}
{"Compound": "O=[N+]([O-])c1ccc(N/C(=N\\c2ccccc2Br)NCCOc2ccccc2)c(O)c1", "Qualitative label": "Yes"}
{"Compound": "O=C(/C=C/c1ccc(Cl)c(Cl)c1)NC1CCN(Cc2ccc(O)cc2)C1.O=C(O)C(F)(F)F (stereo not drawn)", "Qualitative label": "Yes"}
{"Compound": "CCCC(C)c1cnc2nc(N)nc(N)c2c1C (stereo not drawn)", "Qualitative label": "No"}
{"Compound": "Fc1ccc(Nc2ccnc3cc(I)ccc23)c(Cl)c1", "Qualitative label": "No"}
{"Compound": "CCCCCCOc1ccccc1C(=O)NCCOc1ccc(Cl)cc1", "Qualitative label": "Yes"}
{"Compound": "COc1cc(-c2cnc(N)c(-c3nc4ccccc4[nH]3)c2)cc(OC)c1OC.Cl", "Qualitative label": "No"}
{"Compound": "O=C(/C=C/c1ccc(Cl)c(Cl)c1)NCCCCCN1CCCN(C(=O)Nc2ccc(F)c(F)c2)CC1", "Qualitative label": "No"}
{"Compound": "CC(C)CCN1CCCN(Cc2ccc(C(=O)Nc3ccc(F)c(F)c3)cc2)CC1.O=C(O)C(F)(F)F", "Qualitative label": "No"}
{"Compound": "O=C(O)C(F)(F)F.c1ccc2c(c1)CN(CC1CCOCC1)CC1(CCN(Cc3c[nH]c4cnccc34)CC1)O2", "Qualitative label": "No"}
{"Compound": "O=C(Nc1cccc(CCNCc2ccccc2)c1)Nc1cccc2ccccc12.O=C(O)C(F)(F)F", "Qualitative label": "Yes"}
{"Compound": "Cc1noc(-c2ccc3c(c2)CCN(CCC2CCC(NC(=O)/C=C/c4cccc(Cl)c4)CC2)CC3)n1.Cl (stereo not drawn)", "Qualitative label": "No"}
{"Compound": "O=C(NCc1ccc(Cl)c(Cl)c1)c1ccc(-c2nc3ccc(F)cc3[nH]2)cc1", "Qualitative label": "Yes"}
{"Compound": "CC(C)OC(=O)c1ccc(NC(=O)N[C@@H](Cc2ccc(O)cc2)C(=O)NC2CC3CCC(C2)N3Cc2ccccc2)cc1.O=C(O)C(F)(F)F (stereo partly drawn)", "Qualitative label": "Yes"}
{"Compound": "Cc1[nH]c(C)c(-c2ccc(-c3ccc(OCC(F)(F)F)cc3)nc2)c(=O)c1Cl", "Qualitative label": "Yes"}
{"Compound": "COc1ccc(CNCc2ccc(F)cc2)cc1-c1ccc(S(=O)(=O)NCCN2CCCC2)c(C)c1.O=C(O)C(F)(F)F", "Qualitative label": "No"}
{"Compound": "Cc1cccc2nc(-c3cccc(-c4ccc(NC(=O)C(=O)c5cccn5C)cc4)c3)[nH]c12", "Qualitative label": "No"}
{"Compound": "COc1cccc(-c2ccc3c(-c4ccc(F)cc4)cnc(N)c3c2)c1.O=CO", "Qualitative label": "No"}
{"Compound": "COC1CCC(C(=O)Nc2ccc(-c3cccc(-c4nc5cc(C(F)(F)F)ccc5[nH]4)c3)cc2)CC1 (stereo not drawn)", "Qualitative label": "No"}
{"Compound": "CCNc1cc(C(=O)N[C@@H](Cc2ccccc2)[C@H](O)CNC(C)(C)Cc2cccc(Cl)c2)cc(N2CCCCS2(=O)=O)c1.Cl", "Qualitative label": "Yes"}
